Every entry's value here was drawn from the supplement of paper PMC8149375.

Test system: ACHN
Assay Summary: AUC of dose-response viability curve, drug + dasatinib, normalised to DMSO (arbitrary (AUC of normalised viability)); higher = less growth inhibition
Run Parameters: treatment: drug + dasatinib (fixed dose, not stated); 5 days
Catalogue of compounds with associated AUC of dose-response viability curve
Enter the number alone.

# annotated cases, reported AUC of dose-response viability curve shown
stdin: Bench note: what AUC of dose-response viability curve did COCCOc1ccc2c(c1)ncn2-c1ccc2cccc(N3CCC(N)CC3)c2n1 + Cc1nc(Nc2ncc(C(=O)Nc3c(C)cccc3Cl)s2)cc(N2CCN(CCO)CC2)n1 show?
stdout: 1.73

stdin: Bench note: what AUC of dose-response viability curve did COc1ccc(COc2cc3oc(=O)c4cc(C(C)O)ccc4c3cc2OC)cc1 (stereo not given) [Palomid 529] + Cc1nc(Nc2ncc(C(=O)Nc3c(C)cccc3Cl)s2)cc(N2CCN(CCO)CC2)n1 show?
stdout: 2.1

stdin: Bench note: what AUC of dose-response viability curve did COc1cc(Nc2ncc(F)c(Nc3ccc4c(n3)NC(=O)C(C)(C)O4)n2)cc(OC)c1OC.O=S(=O)(O)c1ccccc1 [R406] + Cc1nc(Nc2ncc(C(=O)Nc3c(C)cccc3Cl)s2)cc(N2CCN(CCO)CC2)n1 show?
stdout: 1.71

stdin: Bench note: what AUC of dose-response viability curve did CCO.N#CC(=C(/N)Sc1ccccc1N)/C(C#N)=C(\N)Sc1ccccc1N [U0126-EtOH] + Cc1nc(Nc2ncc(C(=O)Nc3c(C)cccc3Cl)s2)cc(N2CCN(CCO)CC2)n1 show?
stdout: 1.84

Shifting focus to the compound that follows.
stdin: Bench note: what AUC of dose-response viability curve did Cn1cc(-c2ccc3nnc(Sc4ccc5ncccc5c4)n3n2)cn1 [SGX-523] + Cc1nc(Nc2ncc(C(=O)Nc3c(C)cccc3Cl)s2)cc(N2CCN(CCO)CC2)n1 show?
stdout: 1.87

====

Tested on: 769-P
Assay Summary: minimum viability across doses, drug alone, relative to DMSO (fraction); higher = less growth inhibition
Run Parameters: treatment: drug alone; 5 days
Quantity Name: minimum viability across doses
Enter the number alone.

# annotated cases, reported minimum viability across doses shown
stdin: What is its minimum viability across doses for 769-P? Entry: CCCCCCCCCCCCc1ccc(S(=O)(=O)Nc2nncs2)cc1 [PHT-427]
stdout: 0.855

stdin: What is its minimum viability across doses for 769-P? Entry: O=C1Nc2ccccc2/C1=C1/Nc2ccccc2C1=O [Indirubin]
stdout: 0.811

stdin: What is its minimum viability across doses for 769-P? Entry: C#Cc1cccc(Nc2ncnc3cc(OCCOC)c(OCCOC)cc23)c1.Cl [Erlotinib HCl]
stdout: 0.39

Shifting focus to the molecule that follows.
stdin: What is its minimum viability across doses for 769-P? Entry: CCOC(=O)C1=C(N)Oc2ccc(Br)cc2[C@H]1[C@H](C#N)C(=O)OCC [HA14-1]
stdout: 0.973

====

Test system: 769-P
Assay Summary: GI50, drug alone; higher = less potent
Run Parameters: treatment: drug alone; 5 days
Quantity Name: GI50, drug alone

stdin: Bench note: what GI50, drug alone did `CCCS(=O)(=O)Nc1ccc(F)c(C(=O)c2c[nH]c3ncc(Cl)cc23)c1F` show?
stdout: > 10 µM

***
stdin: Bench note: what GI50, drug alone did `Cc1cc2c(C(C)C)c(O)c(O)c(C=O)c2c(O)c1-c1c(C)cc2c(C(C)C)c(O)c(O)c(C=O)c2c1O` show?
stdout: > 10 µM

stdin: Bench note: what GI50, drug alone did `CNC(=O)c1cccc(-c2ccc3c(N4CCOC[C@@H]4C)nc(N4CCOC[C@@H]4C)nc3n2)c1` show?
stdout: 0.573 µM

stdin: Bench note: what GI50, drug alone did O=C1NC(=O)C(=Cc2ccc(-c3ccc(F)cc3)o2)S1 (stereo in doubt) show?
stdout: > 10 µM

stdin: Bench note: what GI50, drug alone did `Cc1cc2c(F)c(Oc3ncnn4cc(OC[C@@H](C)O)c(C)c34)ccc2[nH]1` show?
stdout: > 10 µM

====

Tested on: 786-O
Assay Summary: minimum viability across doses, drug alone, relative to DMSO (fraction); higher = less growth inhibition
Run Parameters: treatment: drug alone; 5 days
The label MET is reserved for minimum viability across doses strictly under 0.2; NOT MET covers values equal to or above it.

Some entries whose results are on file:
stdin: Consider the molecule `CN(C)CCOc1ccc(-c2nc(-c3ccncc3)c(-c3ccc4c(c3)CC/C4=N/O)[nH]2)cc1` . Is its minimum viability across doses strictly less than 0.2?
stdout: MET

stdin: Consider the molecule `COc1cc(Nc2ncc(F)c(Nc3ccc4c(n3)N(COP(=O)(O)O)C(=O)C(C)(C)O4)n2)cc(OC)c1OC` . Is its minimum viability across doses strictly less than 0.2?
stdout: MET

stdin: Consider the molecule `COc1cc2ncnc(Nc3ccc(O)c(Br)c3)c2cc1OC` . Is its minimum viability across doses strictly less than 0.2?
stdout: NOT MET

stdin: Consider the molecule `COc1ccc2c(Oc3ccc(NC(=O)c4c(C)n(CC(C)(C)O)n(-c5ccccc5)c4=O)nc3)ccnc2c1` . Is its minimum viability across doses strictly less than 0.2?
stdout: NOT MET

stdin: Consider the molecule `C=CC(=O)Nc1cc2c(Nc3ccc(F)c(Cl)c3)ncnc2cc1OCCCN1CCOCC1` . Is its minimum viability across doses strictly less than 0.2?
stdout: NOT MET

***
stdin: Consider the molecule Nc1cccc2c1C(=O)N(C1CCC(=O)NC1=O)C2=O (configuration not stated) [Pomalidomide] . Is its minimum viability across doses strictly less than 0.2?
stdout: NOT MET

====

System: 786-O
Assay Summary: GI50 of drug in presence of dasatinib; higher = less potent
Run Parameters: treatment: drug + dasatinib (fixed dose, not stated); 5 days
Quantity Name: GI50 of drug (nM)
Answer with a number only, understood to be in nM.

# annotated cases, reported GI50 of drug shown
stdin: Bench note: what GI50 of drug did O=C(NCc1ccccc1)c1csc(Nc2ccncn2)n1 [Thiazovivin] + Cc1nc(Nc2ncc(C(=O)Nc3c(C)cccc3Cl)s2)cc(N2CCN(CCO)CC2)n1 [dasatinib] show?
stdout: 2390

stdin: Bench note: what GI50 of drug did O=C(Cc1ccc(-c2ccc(OCCN3CCOCC3)cc2)cn1)NCc1ccccc1 [KX2-391] + Cc1nc(Nc2ncc(C(=O)Nc3c(C)cccc3Cl)s2)cc(N2CCN(CCO)CC2)n1 [dasatinib] show?
stdout: 14.9

stdin: Bench note: what GI50 of drug did Cc1cc(Nc2nc(N[C@@H](C)c3ccc(F)cc3)c(C#N)cc2F)n[nH]1 [AZ 960] + Cc1nc(Nc2ncc(C(=O)Nc3c(C)cccc3Cl)s2)cc(N2CCN(CCO)CC2)n1 [dasatinib] show?
stdout: 197

***
stdin: Bench note: what GI50 of drug did CC(C)c1cnn2c(NCc3ccccc3)cc(NCCCCCCN)nc12.Cl [BS-181 HCl] + Cc1nc(Nc2ncc(C(=O)Nc3c(C)cccc3Cl)s2)cc(N2CCN(CCO)CC2)n1 [dasatinib] show?
stdout: 7190

stdin: Bench note: what GI50 of drug did CC(C)c1ccccc1Cc1cc(C(=O)Nc2ccc(S(=O)(=O)c3ccccc3C(C)(C)C)cc2)c(O)c(O)c1O [TW-37] + Cc1nc(Nc2ncc(C(=O)Nc3c(C)cccc3Cl)s2)cc(N2CCN(CCO)CC2)n1 [dasatinib] show?
stdout: 1200

stdin: Bench note: what GI50 of drug did Cc1cc(CN2CCN(c3c(Br)cnc4[nH]c(-c5ccc(N6CCN(C)CC6)cc5)nc34)CC2)no1 + Cc1nc(Nc2ncc(C(=O)Nc3c(C)cccc3Cl)s2)cc(N2CCN(CCO)CC2)n1 [dasatinib] show?
stdout: 232

====

Catalogue of molecules with associated minimum viability across doses
Test system: CAKI-1
Assay Summary: minimum viability across doses, drug + dasatinib, relative to DMSO (fraction); higher = less growth inhibition
Run Parameters: treatment: drug + dasatinib (fixed dose, not stated); 5 days
Enter the number alone.

stdin: Bench note: what minimum viability across doses did CC1(C)CNc2cc(NC(=O)c3cccnc3NCc3ccncc3)ccc21.O=P(O)(O)O.O=P(O)(O)O [Motesanib Diphosphate] + Cc1nc(Nc2ncc(C(=O)Nc3c(C)cccc3Cl)s2)cc(N2CCN(CCO)CC2)n1 show?
stdout: 0.542

stdin: Bench note: what minimum viability across doses did O=c1[nH]c2ccc(Cl)cc2c(N[C@@H]2CN3CCC2CC3)c1-c1nc2ccccc2[nH]1 [CHIR-124] + Cc1nc(Nc2ncc(C(=O)Nc3c(C)cccc3Cl)s2)cc(N2CCN(CCO)CC2)n1 show?
stdout: 0.0428

stdin: Bench note: what minimum viability across doses did Nc1ccc(C(=O)Nc2cccc(-c3nc(N4CCOCC4)c4oc5ncccc5c4n3)c2)cn1 + Cc1nc(Nc2ncc(C(=O)Nc3c(C)cccc3Cl)s2)cc(N2CCN(CCO)CC2)n1 show?
stdout: 0.0783

Shifting focus to the molecule that follows.
stdin: Bench note: what minimum viability across doses did C[C@@H]1COC(Nc2ccc3ncnc(Nc4ccc(OCc5nccs5)c(Cl)c4)c3c2)=N1 + Cc1nc(Nc2ncc(C(=O)Nc3c(C)cccc3Cl)s2)cc(N2CCN(CCO)CC2)n1 show?
stdout: 0.318
